Test system: RAW264.7
Assay: Antiinflammatory activity against mouse RAW264.7 cells assessed as inhibition of LPS-induced PGE2 production preincubated for 1 hr followed by LPS-stimulation and measured after 18 hrs
Assay type: functional, cell-based
pIC50: −log10 of the molar value.
measured_attribute: pIC50

COc1cc(/C=C/C(=O)NCCc2ccc(O)cc2)ccc1O [N-TRANS-FERULOYL TYRAMINE]; 5.20

(I) COc1cc(/C=C/C(=O)NCCc2ccc(O)c(O)c2)ccc1O [N-TRANS-FERULOYLDOPAMINE]
(II) C[C@]12CCC(=O)C=C1CC[C@@H]1[C@@H]2[C@@H](O)C[C@@]2(C)[C@H]1CC[C@]2(O)C(=O)CO [HYDROCORTISONE]
(III) COc1cc(/C=C/C(=O)O[C@H](C(=O)O)[C@](O)(Cc2ccc(O)cc2)C(=O)O)ccc1O
[in] // smallest pIC50 at index 0, largest at the end Return value: ordered labels per request.
[out] I, III, II
(I: 4.40, III: 4.71, II: 5.26)
